# assay_info: Cytotoxicity against human MT4 cells by MTT assay in presence of 2.5 uM of chloroquine
# Assay type: cell-based
Residues, ends and D or L forms follow the SMILES beside them. *: point of attachment. Cam = NC(=O)C*
Listed below: CC50 values for each entry.

[
  {
    "compound": "c1cc(CN2CCCNCCNCCCNCC2)ccc1CN1CCCNCCNCCCNCC1",
    "CC50": "> 50 µM"
  },
  {
    "compound": "CC[C@H](C)[C@H](NC(=O)[C@H](CCCNC(=N)N)NC(=O)[C@H](CCC(N)=O)NC(=O)[C@H](Cc1cnc[nH]1)NC(=O)[C@@H](NC(=O)[C@H](CO)NC(=O)[C@H](Cc1ccc(O)cc1)NC(=O)[C@H](CC(C)C)NC(=O)[C@@H](NC(=O)[C@H](C)NC(=O)[C@@H](NC(=O)[C@@H](NC(C)=O)[C@@H](C)O)[C@@H](C)CC)C(C)C)C(C)C)C(=O)N[C@@H](CC(=O)O)C(=O)N[C@H](C(=O)N[C@@H](CCCCN)C(=O)NCC(=O)N[C@@H](CSCC(N)=O)C(N)=O)C(C)C (Ac-TIAVLYSVHQRIDVKGC(Cam)-NH2)",
    "CC50": "> 50 µM"
  },
  {
    "compound": "Cc1cn([C@H]2C[C@H](N=[N+]=[N-])[C@@H](CO)O2)c(=O)[nH]c1=O",
    "CC50": "27 µM"
  }
]

Data credit: ChEMBL document CHEMBL3600292
